- subject.of.test: T1, monkey CD73 on CHOK1-cynoCD73 cells (monkey, UniProt A0A2K5V5U7 27-549, GPI anchor at the C-terminus of the mature chain (paragraph 3 says CD73 is GPI-anchored). The propeptide 550-574 is removed.)
- T1 construct: also called CHOK1-cyno73 cells; monkey CD73 positive cells
- T1 sequence: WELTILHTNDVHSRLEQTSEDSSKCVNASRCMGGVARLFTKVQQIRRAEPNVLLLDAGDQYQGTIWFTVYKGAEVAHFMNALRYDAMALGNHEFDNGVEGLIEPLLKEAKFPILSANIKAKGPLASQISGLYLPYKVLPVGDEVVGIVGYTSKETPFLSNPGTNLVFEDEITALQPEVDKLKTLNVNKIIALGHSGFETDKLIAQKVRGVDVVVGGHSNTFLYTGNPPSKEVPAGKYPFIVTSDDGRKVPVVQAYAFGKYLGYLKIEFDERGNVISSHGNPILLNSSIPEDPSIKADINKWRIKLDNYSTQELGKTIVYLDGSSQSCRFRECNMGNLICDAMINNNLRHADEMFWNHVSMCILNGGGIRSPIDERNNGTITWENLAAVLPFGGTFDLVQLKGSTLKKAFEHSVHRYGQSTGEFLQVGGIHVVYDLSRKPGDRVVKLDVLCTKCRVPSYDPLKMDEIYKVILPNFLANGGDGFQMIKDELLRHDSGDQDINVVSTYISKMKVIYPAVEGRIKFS
- experiment.notes: flow cytometry on CHOK1-cynoCD73 cells
Listed here are binders together with their documented EC50 (read off the curve).

Incoming: Recorded EC50 (read off the curve) for humanized CQ137 monoclonal antibody (137-9) (antibody, V domains shown) VH: QVQLVQSGAEVKKPGSSVKVSCKASGYSFTGYYIHWVRQAPGQGLEWMGRINPYNGATTYNQNFKDRVTITVDKSTSTAYMELSSLRSEDTAVYYCARFHYGAPDLWGQGTLVTVSS VL: DIQMTQSPSSLSASVGDRVTITCKASQDINTYLTWYQQKPGKAPKTLIYRANILVDGVPSRFSGSGSGTDFTLTISSLQPEDFATYYCLQYDAFPLTFGGGTKVEIKR , please?
Outgoing: ~0.02 mg/L

Now take the following binder into account.
Incoming: Looking for the measured EC50 (read off the curve) of humanized CQ137 monoclonal antibody (137-5) (antibody, V domains shown) VH: QVQLVQSGAEVKKPGSSVKVSCKASGYSFTGYYIHWVRQAPGQGLEWMGRINPYNGATTYNQNFKDRVTITVDKSTSTAYMELSSLRSEDTAVYYCARFHYGAADYWGQGTLVTVSS VL: DIQMTQSPSSLSASVGDRVTITCKASQDINTYLTWYQQKPGKAPKTLIYRANILVDGVPSRFSGSGSGTDFTLTISSLQPEDFATYYCLQYNEFPLTFGGGTKVEIKR , can you help?
Outgoing: ~0.02 mg/L

Cited source for all entries: patent US20240174763A1
